We begin with a simple list: items and their reported LD50.
experiment: Acute toxicity LD50, intraperitoneal (Table 5); conditions: mouse, in vivo, ip; intraperitoneal, mice; corresponding acid; read-out: LD50 of the 5-substituted picolinic acid
Form entry: value (mg/kg) — number only.

| Compound | LD50 / mg/kg |
| --- | --- |
| CCCCSc1ccc(C(=O)O)nc1 | 143 |

Now look at this entry.
Which LD50 is reported for this compound? O=C(O)c1ccc(CCC(Br)CBr)cn1 (centres unmarked) [5-(3,4-dibromobutyl)picolinic acid, reference compound]
110
